- target_system: T1, RXFP1 receptor (UniProt Q9HBX9 1-757, limits assumed)
- T1 sequence (looked up): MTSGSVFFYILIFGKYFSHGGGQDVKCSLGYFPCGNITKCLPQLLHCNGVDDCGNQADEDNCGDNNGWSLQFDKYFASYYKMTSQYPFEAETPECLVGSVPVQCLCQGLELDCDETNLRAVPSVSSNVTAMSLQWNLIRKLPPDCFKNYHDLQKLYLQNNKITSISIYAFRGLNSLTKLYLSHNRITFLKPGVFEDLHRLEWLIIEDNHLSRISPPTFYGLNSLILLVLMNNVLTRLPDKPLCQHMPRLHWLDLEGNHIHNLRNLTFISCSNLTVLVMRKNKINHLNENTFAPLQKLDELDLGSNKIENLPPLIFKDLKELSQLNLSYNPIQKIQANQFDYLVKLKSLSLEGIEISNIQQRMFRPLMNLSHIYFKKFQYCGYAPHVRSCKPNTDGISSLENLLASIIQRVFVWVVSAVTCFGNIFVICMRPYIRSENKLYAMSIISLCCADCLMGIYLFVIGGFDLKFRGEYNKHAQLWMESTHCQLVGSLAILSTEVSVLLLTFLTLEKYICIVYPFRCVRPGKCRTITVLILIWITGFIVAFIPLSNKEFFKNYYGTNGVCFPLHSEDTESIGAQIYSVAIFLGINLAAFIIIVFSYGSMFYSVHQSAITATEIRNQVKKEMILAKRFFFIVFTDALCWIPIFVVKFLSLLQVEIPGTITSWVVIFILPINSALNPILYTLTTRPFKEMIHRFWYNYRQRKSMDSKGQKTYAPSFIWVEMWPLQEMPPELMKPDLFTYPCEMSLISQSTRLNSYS
- protocol_description: cell-based or functional assay
*1 amine or outer side, *2 acyl side, *3 side chain or, on linkers, in order; H or OH if unused. Primed or numbered codes have the meaning given here. Side-chain parts run from the residue outwards. [ ]: non-standard residue; d: D form. The star is where a group is joined. PEG2DGA = 2-[2-[3-[2-[2-(3-aminopropoxy)ethoxy]ethoxy]propylamino-2-oxo-ethoxy]acetyl; αMeW = C[C@](N)(Cc1c[nH]c2ccccc12)C(=O)O; γGlu = O=C(O)[C@H](CCC(=O)[*:2])N[*:1]; Stearoyl = CCCCCCCCCCCCCCCCCC(=O)*; Palmitoyl = CCCCCCCCCCCCCCCC(=O)*; αMeK = C[C@](N)(CCCCN)C(=O)O; Nle = CCCC[C@H](N)C(=O)O; PEG2′ = PEG2 spacer unit; PEG2″ = not defined here; Aib = CC(C)(N)C(=O)O
measured_quantity: EMax, OVCAR 5 cells (cAMP) (%)

What value of EMax, OVCAR 5 cells (cAMP) has been recorded for this entry: Ac-LEGREKVRAK(Ac)I[Aib][Aib]EG[Nle]STWS[Aib]AAK(Ac)K([PEG2DGA-PEG2DGA-γGlu-γGlu-γGlu-Stearoyl])-NH2 [peptide of SEQ ID NO: 156]
90

What value of EMax, OVCAR 5 cells (cAMP) has been recorded for this entry: Ac-LEGREKVRAK(Ac)I[Aib][Aib]EG[Nle]STWS[Aib]RKK[PEG2″][PEG2″][PEG2″][PEG2″]K([γGlu-γGlu-γGlu-γGlu-Stearoyl])-NH2 [peptide of SEQ ID NO: 15]
92

What value of EMax, OVCAR 5 cells (cAMP) has been recorded for this entry: Ac-LEGREKVRAK(Ac)I[Aib][Aib]EG[Nle]ST[αMeW]S[αMeK]RKK(Ac)[PEG2′][PEG2′][PEG2′]K([γGlu-γGlu-γGlu-γGlu-Palmitoyl])-NH2 [peptide of SEQ ID NO: 125]
89

What value of EMax, OVCAR 5 cells (cAMP) has been recorded for this entry: Ac-LEGREKVRAQI[Aib][Aib]EG[Nle]STWS[Aib]RKK([PEG2′-PEG2′-γGlu-γGlu-γGlu-Palmitoyl])-NH2 [peptide of SEQ ID NO: 58]
83
